The measurements presented in this section are drawn from patent US12629374B2.

Parameter: EC50. Scope: all listed entries.
# System: ring stage parasites
# assay-comment: Parasite growth potency assay, 72 hours, LDH readout
# Type: cell-based
# assay-conditions: 72 h, parasite growth measured by LDH assay after 72 hours at 37° C.; 0.7% rings, 2% haematocrit; read-out: EC50
Counter-ions that a name gives are not always drawn.
measure-name: EC50 (nM)

[[record]]
compound = "CCC1(CC)CC(=O)N(Cc2cncc(C(=O)N[C@@H]3c4ccccc4C[C@H]3O)c2)C(=N)N1 [Example 39, trifluoroacetate]"
system = "ring stage parasites"
value_observed = 30.4

[[record]]
compound = "CCC1(CC)CC(=O)N(Cc2cccc(C(=O)N[C@@H]3c4ccccc4OCC3F)c2)C(=N)N1 (stereo in doubt) [Example 87, trifluoroacetate]"
system = "ring stage parasites"
value_observed = 7.3

[[record]]
compound = "CC(C)[C@]1(C)CC(=O)N(Cc2cccc(C(=O)N[C@H]3CCOc4ccccc43)c2)C(=N)N1 [Example 3, trifluoroacetate]"
system = "ring stage parasites"
value_observed = 6.2

[[record]]
compound = "CCC1(CC)CC(=O)N([C@H](CCN2CCOCC2)c2cccc(C(=O)N[C@H]3CCOc4ccccc43)c2)C(=N)N1 [Example 54, trifluoroacetate]"
system = "ring stage parasites"
value_observed = 5.6

[[record]]
compound = "CCC[C@H](c1cncc(C(=O)N[C@H]2CCOc3ccccc32)c1)N1C(=N)NC(CC)(CC)CC1=O [Example 50, trifluoroacetate]"
system = "ring stage parasites"
value_observed = 0.4

[[record]]
compound = "CC(C)[C@]1(C)CC(=O)N([C@@H](c2cccnc2)c2cccc(C(=O)N[C@H]3CC(C)(C)Oc4ccccc43)c2)C(=N)N1 [Example 101B, trifluoroacetate]"
system = "ring stage parasites"
value_observed = 1.5

[[record]]
compound = "CC[C@]1(C(C)C)CC(=O)N(Cc2cc(F)cc(C(=O)N[C@H]3CCOc4ccccc43)c2)C(=N)N1 [Example 44, trifluoroacetate]"
system = "ring stage parasites"
value_observed = 2.6

[[record]]
compound = "CC[C@@]1(C)CC(=O)N([C@H](CCOC(F)F)c2cccc(C(=O)N[C@@H]3c4ccccc4C[C@H]3O)c2)C(=N)N1 [Example 172, trifluoroacetate]"
system = "ring stage parasites"
value_observed = 1.7

[[record]]
compound = "CC1(C)CC(=O)N(C(CC(F)(F)F)c2cccc(C(=O)N[C@@H]3c4ccccc4OC(C)(C)[C@H]3O)c2)C(=N)N1 (stereo partly drawn) [Example 233]"
system = "ring stage parasites"
value_observed = 1.4

[[record]]
compound = "CCC1(CC)CC(=O)N(Cc2cccc(C(=O)N[C@H]3CCOc4ccc(C)cc43)c2)C(=N)N1 (stereo in doubt) [Example 217]"
system = "ring stage parasites"
value_observed = 10

[[record]]
compound = "CCC1(CC)NC(=N)N(Cc2cc(F)cc(C(=O)N[C@@H]3c4ccccc4C[C@H]3O)c2)C(=O)C1C (stereo partly drawn) [Example 48, trifluoroacetate]"
system = "ring stage parasites"
value_observed = 5.2

[[record]]
compound = "CCC1(CC)CC(=O)N([C@H](c2cccc(C(=O)N[C@H]3CCOc4ccccc43)c2)c2cncs2)C(=N)N1 (single isomer, unassigned) [Example 85B, trifluoroacetate]"
system = "ring stage parasites"
value_observed = 2.1


* * *

Parameter: EC50. Scope: all listed entries.
# System: ring stage parasites
# assay-comment: Parasite growth potency assay, 72 hours, LDH readout
# Type: cell-based
# assay-conditions: 72 h, parasite growth measured by LDH assay after 72 hours at 37° C.; 0.7% rings, 2% haematocrit; read-out: EC50
Where a name gives a salt, the structure may show the parent alone.
measure-name: EC50 (nM)

[[record]]
molecule = "CCC1(CC)CC(=O)N(Cc2cc(C(=O)N[C@H]3CCOc4ccccc43)ccn2)C(=N)N1 [Example 23, trifluoroacetate]"
value_observed = 11.5

[[record]]
molecule = "CCC1(CC)CC(=O)N([C@H](c2cncnc2)c2cccc(C(=O)N[C@@H]3c4ccccc4C[C@H]3O)c2)C(=N)N1 [Example 110B]"
value_observed = 8.3

[[record]]
molecule = "CCC1(CC)CC(=O)N(Cc2cccc(C(=O)N[C@@H]3c4ccccc4OC(C)(C)[C@H]3O)c2)C(=N)N1"
value_observed = 0.8

[[record]]
molecule = "CCC1(CC)CC(=O)N([C@H](CCS(C)(=O)=O)c2cccc(C(=O)N[C@H]3CC(C)(C)Oc4ccccc43)c2)C(=N)N1 [Example 156, trifluoroacetate]"
value_observed = 5.7

[[record]]
molecule = "CCC1(CC)CC(=O)N([C@H](c2ccc(S(C)(=O)=O)cc2)c2cccc(C(=O)N[C@@H]3c4ccccc4C[C@H]3O)c2)C(=N)N1"
value_observed = 6.8

[[record]]
molecule = "CC[C@@H](c1cccc(C(=O)N[C@@H]2c3ccccc3OC(C)(C)[C@H]2O)c1)N1C(=N)NC(CC)(CC)CC1=O [Example 207B, trifluoroacetate]"
value_observed = 72

[[record]]
molecule = "CCC1(CC)CC(=O)N(C(COC)c2cccc(C(=O)N[C@@H]3c4ccccc4OC(C)(C)[C@H]3O)c2)C(=N)N1 (stereo partly drawn)"
value_observed = 0.32

[[record]]
molecule = "COCC[C@H](c1cccc(C(=O)N[C@@H]2c3ccccc3C[C@H]2O)c1)N1C(=N)NC(C)(C)CC1=O [Example 179, trifluoroacetate]"
value_observed = 8.3

[[record]]
molecule = "C=CC[C@H](c1cccc(C(=O)N[C@H]2CCOc3ccccc32)c1)N1C(=N)NC(CC)(CC)CC1=O [Example 41, trifluoroacetate]"
value_observed = 0.9

[[record]]
molecule = "CCC1(CC)CC(=O)N(Cc2cccc(C(=O)N[C@H]3CCOc4ccccc43)c2F)C(=N)N1 [Example 20, trifluoroacetate]"
value_observed = 10.9

[[record]]
molecule = "CCC1(CC)CC(=O)N([C@@H](c2cccc(C(=O)N[C@H]3CCOc4ccccc43)c2)c2cccc(S(C)(=O)=O)c2)C(=N)N1 [Example 123A, trifluoroacetate]"
value_observed = 1.9

[[record]]
molecule = "COCC[C@H](c1cc(F)cc(C(=O)N[C@@H]2c3ccccc3C[C@H]2O)c1)N1C(=N)NC(C)(C)CC1=O [Example 169, trifluoroacetate]"
value_observed = 4.7

[[record]]
molecule = "CCC1(CC)CC(=O)N([C@H](C)c2cccc(C(=O)N[C@@H]3c4ccccc4OC[C@@]3(C)O)c2)C(=N)N1 [Example 205A, trifluoroacetate]"
value_observed = 1.1

[[record]]
molecule = "CC(C)[C@]1(C)CC(=O)N([C@H](C)c2cccc(C(=O)N[C@H]3CCOc4ccccc43)c2)C(=N)N1 [Example 25, trifluoroacetate]"
value_observed = 4.4

[[record]]
molecule = "CC(C)[C@]1(C)CC(=O)N(Cc2cc(F)cc(C(=O)N[C@H]3CCOc4ccccc43)c2)C(=N)N1 [Example 29, trifluoroacetate]"
value_observed = 7.7

[[record]]
molecule = "CCC1(CC)CC(=O)N([C@H](COCCOC)c2cccc(C(=O)N[C@@H]3c4ccccc4OC(C)(C)[C@H]3O)c2)C(=N)N1 [Example 139, trifluoroacetate]"
value_observed = 1.5

[[record]]
molecule = "CCC[C@H](c1cccc(C(=O)N[C@H]2CCOc3ccccc32)c1)N1C(=N)N[C@](CC)(c2ccccc2)CC1=O [Example 70, trifluoroacetate]"
value_observed = 76

[[record]]
molecule = "CCC1(CC)CC(=O)N([C@H](CCOC(F)F)c2cccc(C(=O)N[C@H]3CC(C)(C)Oc4ccccc43)c2)C(=N)N1 [Example 160, trifluoroacetate]"
value_observed = 0.5

[[record]]
molecule = "CCC1(CC)CC(=O)N(C(CCOC)c2ccc(C(F)(F)F)c(C(=O)N[C@@H]3c4ccccc4OC[C@@]3(C)O)c2)C(=N)N1 (stereo partly drawn)"
value_observed = 6.13

[[record]]
molecule = "CCC1(CC)CC(=O)N([C@H](CCN2CCOCC2)c2cccc(C(=O)N[C@H]3CC(C)(C)Oc4ccccc43)c2)C(=N)N1 [Example 135, trifluoroacetate]"
value_observed = 1

[[record]]
molecule = "CCC1(CC)CC(=O)N([C@H](CCN2CCOCC2)c2cccc(C(=O)NC3CC(C)(C)Oc4ccc(F)cc43)c2)C(=N)N1 (stereo in doubt) [Example 137, trifluoroacetate]"
value_observed = 0.8

[[record]]
molecule = "CCC[C@H](c1cccc(C(=O)N[C@H]2CCOc3ccccc32)c1)N1C(=N)N[C@@](CC2CC2)(c2ccccc2)CC1=O [Example 64, trifluoroacetate]"
value_observed = 75.4

[[record]]
molecule = "CCC1(CC)CC(=O)N([C@H](CCN2CCOCC2)c2cccc(C(=O)N[C@@H]3c4ccccc4C[C@H]3O)c2)C(=N)N1 [Example 55, trifluoroacetate]"
value_observed = 9.8

[[record]]
molecule = "COCC[C@H](c1cc(F)cc(C(=O)N[C@H]2CC(C)(C)Oc3ccccc32)c1)N1C(=N)NC(C)(C)CC1=O [Example 173, trifluoroacetate]"
value_observed = 1


* * *

Parameter: pEC50. Scope: all listed entries.
# System: ring stage parasites
# assay-comment: Parasite growth potency assay, 72 hours, LDH readout
# Type: cell-based
# assay-conditions: 72 h, parasite growth measured by LDH assay after 72 hours at 37° C.; 0.7% rings, 2% haematocrit; read-out: EC50
# Method: The parasite stock was maintained at 4% haematocrit in RPMI-Hepes media buffered with sodium bicarbonate and supplemented with 5% heat inactivated human serum and 0.5% albumax. On the day of assay set up, a blood smear of the parasite culture was Giemsa stained and counted. The parasitemia was adjusted to 0.7% rings and the haematocrit was diluted to 2% in RPMI-Hepes media buffered with sodium bicarbonate and supplemented with 5% heat inactivated human serum and 0.5% albumax. […]
pEC50: −log10 of the molar value. Counter-ions that a name gives are not always drawn.
measure-name: pEC50

[[record]]
compound = "CCC[C@H](c1cccc(C(=O)N[C@@H]2c3ccccc3OCC2O)c1)N1C(=N)NC(CC)(CC)CC1=O (stereo partly drawn) [Example 127D]"
value_observed = 8.92

[[record]]
compound = "CCC1(CC)CC(=O)N([C@H](c2ccccc2)c2cccc(C(=O)N[C@@H]3CCOc4ccccc43)c2)C(=N)N1 [Example 4B, trifluoroacetate]"
value_observed = 7.45

[[record]]
compound = "CCC1(CC)CC(=O)N(Cc2cccc(C(=O)N[C@@H]3c4ccccc4OCC3(C)O)c2)C(=N)N1 (stereo in doubt) [Example 131A]"
value_observed = 8.18

